- system: C-terminal-binding protein 1 (Homo sapiens)
- assay remarks: qHTS for Inhibitors of the Phosphatase Activity of Eya2: Carboxyl-terminal binding protein (CtBP) Counterscreen for Cherry-picked Compounds; note: nearly all actives have a fitted effect of over 65% in size
- setup conditions: purified protein-protein binding, AlphaScreen, 3 h; series mostly up to 46.1 µM
- Excerpt: The Eya protein family is an essential co-activator of the Six1 transcription factor. Six1 is a developmental gene that is abnormally re-expressed in a large percentage of breast cancers. This over-expression plays a causal role in the initiation and metastatic development of breast cancers. […] A 1536 well format, fluorescence based qHTS assay was developed and used to target the phosphatase activity of Eya2 (AID 488837). […]
Screen size: about 1,300 compounds; about 420 (32%) were called active. Inconclusive results (about 32%) are left out. Calls come from the whole dose curve; as a rule, active = well fitted inhibition curve with a large enough effect; inconclusive = small, poorly fitted or top-dose-only effect; inactive = no such curve, though single readings can be large or run the other way. Some of the results follow.
// allowed return values: YES for active, NO for inactive

Qu. Kindly provide the recorded test outcome for the following molecule: COc1cc(C(=O)Nc2cccc(NC(=O)c3cccs3)c2)cc(OC)c1OC
Ans. NO

Qu. Kindly provide the recorded test outcome for the following molecule: O=C(O)/C=C/C(=O)Nc1ccc2c(c1)C(=O)c1ccccc1C2=O
Ans. YES

Qu. Kindly provide the recorded test outcome for the following molecule: CC1CCN(CC2C(=O)O[C@@H]3C[C@@]4(C)CCC[C@H](C)C4=C[C@H]23)CC(C)(C)C1 (some centres not stated)
Ans. NO

Qu. Kindly provide the recorded test outcome for the following molecule: COc1cc(CNCc2ccc(OC)cc2OC)cc(OC)c1
Ans. NO

Qu. Kindly provide the recorded test outcome for the following molecule: Cc1cccc2cn[nH]c12
Ans. NO

Qu. Kindly provide the recorded test outcome for the following molecule: Cc1ccc(-n2[nH]c(C)c(C=Nc3ccc(S(=O)(=O)Nc4nccs4)cc3)c2=O)cc1C
Ans. YES

Qu. Kindly provide the recorded test outcome for the following molecule: CC(=O)Nc1ccc2nc(C3CC3)n(Cc3ccc(Cl)cc3)c(=O)c2c1
Ans. NO

Qu. Kindly provide the recorded test outcome for the following molecule: O=C(Oc1ccc2ccc(=O)oc2c1)c1cccs1
Ans. NO

Qu. Kindly provide the recorded test outcome for the following molecule: COc1cccc2c1C(=O)/C(=C/c1ccc(N(C)C)cc1)C2
Ans. YES

Qu. Kindly provide the recorded test outcome for the following molecule: O=C(Nc1ccc(-c2nc3cccnc3s2)cc1)C1CCCO1 (configuration not stated)
Ans. NO

Qu. Kindly provide the recorded test outcome for the following molecule: Cc1cc(C)c2c(/C=C/c3ccc(N(C)C)cc3)ccnc2c1
Ans. YES

Qu. Kindly provide the recorded test outcome for the following molecule: O=C(NNC(=O)c1cc2cc(Br)ccc2oc1=O)c1ccc(O)cc1
Ans. NO

Qu. Kindly provide the recorded test outcome for the following molecule: CN(C)C1=C2C=CC=CC2/C(=C2/C=Cc3ccccc32)C=C1 (configuration not stated)
Ans. YES

Qu. Kindly provide the recorded test outcome for the following molecule: CC(=O)Nc1ccc(OC(=O)c2cc3cc(Br)ccc3oc2=O)cc1
Ans. YES

Qu. Kindly provide the recorded test outcome for the following molecule: COc1ccc(C(=O)Nc2ccc3c(c2)CCCN3C(=O)c2cccs2)c(OC)c1
Ans. YES

Qu. Kindly provide the recorded test outcome for the following molecule: Cc1ccc(C(=O)Oc2ccc3ccc(=O)oc3c2)cc1
Ans. NO

Qu. Kindly provide the recorded test outcome for the following molecule: CC1(C)Nc2cccc3c(N=Nc4ccc(N=Nc5ccccc5)c5ccccc45)ccc(c23)N1
Ans. YES

Qu. Kindly provide the recorded test outcome for the following molecule: CCOc1ccc(NC(=O)c2sccc2-n2cccc2)cc1
Ans. NO

Qu. Kindly provide the recorded test outcome for the following molecule: C#Cc1cccc(NC(=O)CSc2nnc(-c3ccc(C(F)(F)F)cn3)o2)c1
Ans. YES

Qu. Kindly provide the recorded test outcome for the following molecule: COC(=O)c1ccccc1NC1=C/C(=N\S(=O)(=O)c2cccs2)c2ccccc2C1=O
Ans. YES

Qu. Kindly provide the recorded test outcome for the following molecule: Cc1ccc(S(=O)(=O)NN2C(=O)/C(=C/c3cccc(F)c3)SC2=S)cc1
Ans. NO

Qu. Kindly provide the recorded test outcome for the following molecule: COc1ccc(OC)c(/C=C2\SC(=S)N(NS(=O)(=O)c3ccccc3)C2=O)c1
Ans. NO
